meta.source: patent US20170204123A1

system: chinese hamster ovary cells (CHO); experiment: CHO toxicity assay (CCK-8 cell viability); assay type: cell-based; details: 50% growth inhibition vs untreated control, 24 hours
Each record here notes measured CHO cell TD 50.

[[record]]
compound_structure = "CC[P](CC)(CC)=[Au][S]c1nc2ccccc2[nH]1"
system_tested = "chinese hamster ovary cells (CHO)"
outcome_measure = "CHO cell TD 50"
readout_value = "1.5 µg/mL"


get_value(item= CC[P](CC)(CC)=[Au][S]c1ncccn1 , readout=CHO cell TD 50) returns 0.6 µg/mL

get_value(item= CC[P](CC)(CC)=[Au][S]C1CCOCC1 , readout=CHO cell TD 50) returns 0.5 µg/mL

get_value(item= C[P](=[Au][S]c1nc2ccccc2[nH]1)(c1ccccc1)c1ccccc1 , readout=CHO cell TD 50) returns 2.6 µg/mL

get_value(item= CC[P](CC)(CC)=[Au][Se]C[C@H](NC(C)=O)C(=O)OC , readout=CHO cell TD 50) returns 6.5 µg/mL

get_value(item= CC[P](CC)(CC)=[Au][S]C[C@H](NC(C)=O)C(=O)OC , readout=CHO cell TD 50) returns 2.6 µg/mL
